Entries below carry reported pKi on UniProtKB P23977.
Sequence (P23977 whole entry): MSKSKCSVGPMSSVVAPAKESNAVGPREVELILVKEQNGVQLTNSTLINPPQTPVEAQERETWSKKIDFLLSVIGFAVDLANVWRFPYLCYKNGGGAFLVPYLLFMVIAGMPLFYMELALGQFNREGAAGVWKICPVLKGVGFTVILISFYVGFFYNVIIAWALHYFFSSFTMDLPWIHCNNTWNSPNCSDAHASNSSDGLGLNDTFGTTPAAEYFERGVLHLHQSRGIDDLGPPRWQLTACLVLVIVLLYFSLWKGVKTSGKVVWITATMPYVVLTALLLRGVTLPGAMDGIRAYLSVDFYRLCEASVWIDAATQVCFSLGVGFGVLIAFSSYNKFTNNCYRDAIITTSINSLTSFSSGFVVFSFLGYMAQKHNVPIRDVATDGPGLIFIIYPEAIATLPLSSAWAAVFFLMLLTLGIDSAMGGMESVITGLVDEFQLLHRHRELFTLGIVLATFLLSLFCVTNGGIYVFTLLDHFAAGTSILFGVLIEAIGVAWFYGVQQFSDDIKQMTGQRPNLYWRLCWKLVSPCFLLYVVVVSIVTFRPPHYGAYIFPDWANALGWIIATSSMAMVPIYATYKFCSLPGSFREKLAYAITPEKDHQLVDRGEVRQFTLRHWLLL
Here pKi is given on a logarithmic scale as minus log10 of the concentration in mol/L.

>>> reported_value("COC(=O)C1C2CC[C@H](C[C@@H]1c1ccc(I)cc1)N2CCCCCN1C(=O)c2ccccc2C1=O (some centres undefined)")
8.62
>>> reported_value("COC(=O)C1C2CC[C@H](C[C@@H]1c1ccc(I)cc1)N2CCCCCCCCN1C(=O)c2ccccc2C1=O (some centres undefined)")
8.53
>>> reported_value("COC(=O)C1C2CC[C@H](C[C@@H]1c1ccc(I)cc1)N2CCN1C(=O)c2ccccc2C1=O (some centres undefined)")
8.37

Query compound follows.
Prompt: Send back UniProtKB P23977 pKi of COC(=O)C1C2CC[C@@H](C[C@@H]1c1ccc(I)cc1)N2CCCCN1C(=O)c2ccccc2C1=O (some centres undefined) only.
Completion: 8.62

====

Entries below carry reported pKi on Sodium-dependent serotonin transporter (Rattus norvegicus).
Sequence (P31652 whole entry): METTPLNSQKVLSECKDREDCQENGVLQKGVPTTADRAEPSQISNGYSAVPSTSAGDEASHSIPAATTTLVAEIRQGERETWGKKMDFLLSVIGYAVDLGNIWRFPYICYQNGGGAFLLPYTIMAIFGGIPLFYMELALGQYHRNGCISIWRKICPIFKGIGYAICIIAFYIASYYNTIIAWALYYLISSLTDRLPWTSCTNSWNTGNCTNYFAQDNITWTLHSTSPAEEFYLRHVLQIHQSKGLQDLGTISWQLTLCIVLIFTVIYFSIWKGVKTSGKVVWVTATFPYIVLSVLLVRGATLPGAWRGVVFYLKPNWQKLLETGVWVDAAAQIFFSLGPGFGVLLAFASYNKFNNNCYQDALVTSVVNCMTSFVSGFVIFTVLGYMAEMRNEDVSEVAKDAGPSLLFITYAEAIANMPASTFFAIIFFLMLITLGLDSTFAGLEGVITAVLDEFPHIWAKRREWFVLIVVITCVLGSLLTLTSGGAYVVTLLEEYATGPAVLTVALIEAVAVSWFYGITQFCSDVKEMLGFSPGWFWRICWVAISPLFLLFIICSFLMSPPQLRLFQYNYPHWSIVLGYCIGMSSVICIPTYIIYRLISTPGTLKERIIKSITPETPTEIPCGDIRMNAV
Here pKi is given on a logarithmic scale as minus log10 of the concentration in mol/L.

Here's what some known entries look like.
>>> reported_value("COC(=O)C1C2CC[C@H](C[C@@H]1c1ccc(I)cc1)N2CCCCCCCCN1C(=O)c2ccccc2C1=O (stereo not given in full)")
9.70
>>> reported_value("COC(=O)C1C2CC[C@H](C[C@@H]1c1ccc(I)cc1)N2CCCCCN1C(=O)c2ccccc2C1=O (stereo not given in full)")
9.47
>>> reported_value("COC(=O)C1C2CC[C@H](C[C@@H]1c1ccc(I)cc1)N2C (stereo not given in full)")
9.36
>>> reported_value("COC(=O)C1C2CC[C@@H](C[C@@H]1c1ccc(I)cc1)N2CCCCN1C(=O)c2ccccc2C1=O (stereo not given in full)")
9.68

Prompt: Send back Sodium-dependent serotonin transporter (Rattus norvegicus) pKi of COC(=O)C1C2CC[C@H](C[C@@H]1c1ccc(I)cc1)N2CCN1C(=O)c2ccccc2C1=O (stereo not given in full) only.
Completion: 9.08

====

The following molecules are shown together with reported Ki values.
Target: Norepinephrine transporter (Rattus norvegicus)
Sequence (Q9WTR4 whole entry): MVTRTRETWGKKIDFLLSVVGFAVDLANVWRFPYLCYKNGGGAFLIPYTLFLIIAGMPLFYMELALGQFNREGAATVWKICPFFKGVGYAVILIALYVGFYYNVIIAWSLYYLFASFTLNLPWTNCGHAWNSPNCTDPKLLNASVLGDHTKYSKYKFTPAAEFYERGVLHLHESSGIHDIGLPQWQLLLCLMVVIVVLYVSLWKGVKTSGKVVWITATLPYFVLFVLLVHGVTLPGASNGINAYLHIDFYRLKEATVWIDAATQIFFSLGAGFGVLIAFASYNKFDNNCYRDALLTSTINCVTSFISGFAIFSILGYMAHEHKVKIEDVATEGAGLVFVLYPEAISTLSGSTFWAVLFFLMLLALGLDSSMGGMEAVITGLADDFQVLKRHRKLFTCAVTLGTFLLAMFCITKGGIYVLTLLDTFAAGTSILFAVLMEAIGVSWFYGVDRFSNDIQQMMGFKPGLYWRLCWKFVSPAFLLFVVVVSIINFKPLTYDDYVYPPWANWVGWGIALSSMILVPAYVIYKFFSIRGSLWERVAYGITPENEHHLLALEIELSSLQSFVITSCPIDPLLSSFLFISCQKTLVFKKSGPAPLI
Assay: In vitro binding affinity of compound for Norepinephrine (NE) transporter with [3H]- […] as radioligand in corpus striatum tissue from rat forebrain
Format: tissue-based
# unit: nM | format: bare number

Here's what some known entries look like.
>>> reported_value("COC(=O)C1C2CC[C@@H](C[C@@H]1c1ccc(I)cc1)N2CCCCN1C(=O)c2ccccc2C1=O (some centres undefined)")
190
>>> reported_value("COC(=O)C1C2CC[C@H](C[C@@H]1c1ccc(I)cc1)N2CCCCCN1C(=O)c2ccccc2C1=O (some centres undefined)")
60
>>> reported_value("COC(=O)C1C2CC[C@H](C[C@@H]1c1ccc(I)cc1)N2CCN1C(=O)c2ccccc2C1=O (some centres undefined)")
441

Query molecule follows.
Prompt: Send back Norepinephrine transporter (Rattus norvegicus) Ki of COC(=O)C1C2CC[C@H](C[C@@H]1c1ccc(I)cc1)N2CCCCCCCCN1C(=O)c2ccccc2C1=O (some centres undefined) only.
Completion: 75
